Source: the supplement of paper PMC11451515

tested on: SEM cells; experiment: cell viability relative to DMSO control; higher = less cytotoxic; details: HPLM + 10% dialyzed FBS; 48 h; 15.4 µM
PARAMETER: cell viability (%)
One number for each entry, in %.

Reference set, count: 3
{"columns": ["COMPOUND", "PARAMETER", "UNITS", "READING"],
 "data": [
  ["CC[C@@H](C)[C@H](NC(=O)[C@H](CC1CCCCC1)NC(=O)c1ccno1)C(=O)N1CCC2(CCc3ccccc32)CC1", "cell viability", "%", 82.6],
  ["CCN(CC)CCNC(=O)c1ccc2nc(-c3ccccc3)c(-c3ccc(CN4CCC(n5c(=O)[nH]c6ccccc65)CC4)cc3)nc2c1", "cell viability", "%", 4.21],
  ["O=P1(NCCCl)OCCCN1CCCl (centres undefined)", "cell viability", "%", 63]
]}

Field: cell viability. Fill in for each record below.
1. COC1=CC=CC(=C1/C2=N/CC3=C(N=C(NC4=CC(=C(C=C4)C(O)=O)OC)N=C3)C5=CC=C(Cl)C=C25)F
2. O=C(O)c1nn(Cc2ccc(Cl)cc2Cl)c2ccccc12
3. COC(=O)Nc1nc2cc(Sc3ccccc3)ccc2[nH]1
4. CNC(=O)c1ccccc1Sc1ccc2c(/C=C/c3ccccn3)n[nH]c2c1
5. C\C1=N\N(C(=O)C1)C2=CC=CC=C2
6. Cc1ccc(C(N)=O)cc1Nc1nccc(-c2cn(C(C)C)c3cnccc23)n1

1: 25.8; 2: 76.2; 3: 24.1; 4: 33.5; 5: 118; 6: 29
